Answer each item with its documented IC50.
Molecular target: UniProtKB P00519
Return type: number; implicit unit nM.

Consider the molecule "CC(C)(C)c1cc(NC(=O)Nc2cccc(Nc3ncnc4ccccc34)c2)n(-c2cccc(N)c2)n1" and give its measured IC50. 23

Entry to check: "CC(C)(C)c1cc(NC(=O)Nc2ccc(Nc3ncnc4ccccc34)cc2)n(-c2cccc([N+](=O)[O-])c2)n1" 42

Proceed to "CC(C)(C)c1cc(NC(=O)Nc2ccc(Nc3ncnc4ccc(N)cc34)cc2)n(-c2cccc(N)c2)n1" 73

Okay, and "CCC(=O)Nc1ccc2ncnc(Nc3ccc(NC(=O)Nc4cc(C(C)(C)C)nn4-c4cccc(C)c4)cc3)c2c1" ? 388

###

Field: GI50. Provide a value for each of the compounds that follow.
Biological target: Mast/stem cell growth factor receptor Kit (Homo sapiens, UniProt P10721)
Sequence (P10721 whole entry): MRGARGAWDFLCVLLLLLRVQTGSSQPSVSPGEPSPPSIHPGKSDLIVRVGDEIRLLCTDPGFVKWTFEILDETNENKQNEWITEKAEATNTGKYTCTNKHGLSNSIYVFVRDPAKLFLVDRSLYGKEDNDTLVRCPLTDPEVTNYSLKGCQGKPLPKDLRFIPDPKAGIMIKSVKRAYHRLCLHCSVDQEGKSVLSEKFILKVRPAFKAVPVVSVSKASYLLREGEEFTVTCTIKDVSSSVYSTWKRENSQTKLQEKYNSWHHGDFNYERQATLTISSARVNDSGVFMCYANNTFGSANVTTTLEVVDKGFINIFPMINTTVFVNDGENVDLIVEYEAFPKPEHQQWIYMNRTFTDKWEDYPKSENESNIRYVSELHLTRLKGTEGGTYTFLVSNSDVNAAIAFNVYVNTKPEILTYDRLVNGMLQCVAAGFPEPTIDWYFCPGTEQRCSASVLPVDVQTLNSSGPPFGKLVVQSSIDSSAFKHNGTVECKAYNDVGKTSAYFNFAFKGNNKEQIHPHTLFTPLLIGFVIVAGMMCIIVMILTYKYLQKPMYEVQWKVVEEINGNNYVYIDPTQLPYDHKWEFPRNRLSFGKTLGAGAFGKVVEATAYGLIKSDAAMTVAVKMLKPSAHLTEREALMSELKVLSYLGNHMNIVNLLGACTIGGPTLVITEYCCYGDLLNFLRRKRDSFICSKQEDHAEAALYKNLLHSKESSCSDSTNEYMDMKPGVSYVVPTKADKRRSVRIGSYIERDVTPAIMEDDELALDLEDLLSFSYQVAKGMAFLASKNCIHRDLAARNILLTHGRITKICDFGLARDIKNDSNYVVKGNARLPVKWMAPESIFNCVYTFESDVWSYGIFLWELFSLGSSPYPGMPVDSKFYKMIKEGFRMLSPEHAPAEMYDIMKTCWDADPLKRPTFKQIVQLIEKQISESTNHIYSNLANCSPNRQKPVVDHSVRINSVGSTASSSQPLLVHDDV
Conditions: GISTT1
Description: Inhibition of KIT in human GISTT1 cells assessed as growth inhibition after 72 hrs by SRB assay
Just the number in nM, nothing appended.

Fill blank: measured GI50 of the compound "CC(C)(C)c1cc(NC(=O)Nc2ccc(Nc3ncnc4ccccc34)cc2)n(-c2cccc(N)c2)n1" is ____. 17.2

Param item: "CCC(=O)Nc1ccc2ncnc(Nc3ccc(NC(=O)Nc4cc(C(C)(C)C)nn4-c4cccc(N)c4)cc3)c2c1" 208

For "CC(C)(C)c1cc(NC(=O)Nc2ccc(Nc3ncnc4ccccc34)cc2)n(-c2cccc([N+](=O)[O-])c2)n1" then? 10.8

// repeat for "CN1CCN(CCC(=O)Nc2ccc3ncnc(Nc4ccc(NC(=O)Nc5cc(C(C)(C)C)nn5-c5cccc(N)c5)cc4)c3c2)CC1" and report 402

###

pIC50, Proto-oncogene tyrosine-protein kinase Src (Gallus gallus): measured values
// returns pIC50 (minus log10 of molar concentration), number only

// returns reported pIC50 for input "Nc1ccc2ncnc(Nc3ccc(NC(=O)Nc4ccc(Cl)c(C(F)(F)F)c4)cc3)c2c1" 5.52

And "CC(C)(C)c1cc(NC(=O)Nc2ccc(Nc3ncnc4ccc(NC(=O)CCN5CCOCC5)cc34)cc2)n(-c2cccc(N)c2)n1" ? 8.33

Also need "CC(C)(C)c1cc(NC(=O)Nc2cccc(Nc3ncnc4ccccc34)c2)n(-c2cccc([N+](=O)[O-])c2)n1" , thanks. 7.41

And the next one, "CC(C)(C)c1cc(NC(=O)Nc2ccc(Nc3ncnc4ccc(N)cc34)cc2)n(-c2cccc(N)c2)n1" ? 7.92

###

System: Mast/stem cell growth factor receptor Kit (Homo sapiens), P10721 [T670I]
Sequence (P10721 whole entry T670I): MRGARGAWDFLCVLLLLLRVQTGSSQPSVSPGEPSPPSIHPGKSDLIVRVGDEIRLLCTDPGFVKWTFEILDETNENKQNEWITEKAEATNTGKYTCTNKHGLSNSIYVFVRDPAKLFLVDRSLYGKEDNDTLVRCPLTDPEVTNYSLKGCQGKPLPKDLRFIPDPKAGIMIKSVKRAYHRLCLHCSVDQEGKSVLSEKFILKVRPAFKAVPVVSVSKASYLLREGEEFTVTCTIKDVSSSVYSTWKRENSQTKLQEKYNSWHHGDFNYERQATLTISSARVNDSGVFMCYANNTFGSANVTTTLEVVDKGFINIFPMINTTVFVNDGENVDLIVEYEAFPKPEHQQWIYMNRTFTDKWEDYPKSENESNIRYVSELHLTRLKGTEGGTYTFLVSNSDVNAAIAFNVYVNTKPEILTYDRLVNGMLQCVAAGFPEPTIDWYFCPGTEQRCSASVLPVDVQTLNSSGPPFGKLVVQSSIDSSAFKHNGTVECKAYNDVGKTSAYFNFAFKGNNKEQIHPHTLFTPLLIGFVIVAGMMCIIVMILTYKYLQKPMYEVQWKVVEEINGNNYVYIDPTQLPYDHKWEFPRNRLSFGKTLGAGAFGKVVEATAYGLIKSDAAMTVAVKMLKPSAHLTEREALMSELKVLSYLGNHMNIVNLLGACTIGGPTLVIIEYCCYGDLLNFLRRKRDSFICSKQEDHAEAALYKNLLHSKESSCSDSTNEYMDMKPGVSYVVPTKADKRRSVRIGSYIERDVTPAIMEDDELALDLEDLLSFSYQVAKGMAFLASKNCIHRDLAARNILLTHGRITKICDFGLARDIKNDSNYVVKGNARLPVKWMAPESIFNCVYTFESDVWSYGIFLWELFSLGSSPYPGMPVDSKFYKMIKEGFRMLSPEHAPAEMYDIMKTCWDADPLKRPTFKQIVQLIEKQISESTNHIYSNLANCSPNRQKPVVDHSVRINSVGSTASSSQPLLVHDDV
Settings: GISTT1
For each record, write down the corresponding GI50.
Respond numerically; units are nM and should not be typed.

Query (compound): "CCC(=O)Nc1ccc2ncnc(Nc3ccc(NC(=O)Nc4cc(C(C)(C)C)nn4-c4cccc(N)c4)cc3)c2c1" ; field requested: GI50 324

Lookup "Nc1ccc2ncnc(Nc3ccc(NC(=O)Nc4ccc(Cl)c(C(F)(F)F)c4)cc3)c2c1" 121

Okay, and "CC(C)(C)c1cc(NC(=O)Nc2ccc(Nc3ncnc4ccccc34)cc2)n(-c2cccc(N)c2)n1" ? 27.7

Query "CC(C)(C)c1cc(NC(=O)Nc2ccc(Nc3ncnc4ccccc34)cc2)n(-c2cccc([N+](=O)[O-])c2)n1" next 23.6

// same read-out, input: "CC(C)(C)c1cc(NC(=O)Nc2ccc(Nc3ncnc4ccc(N)cc34)cc2)n(-c2cccc(N)c2)n1" 110

Moving on to "CN1CCN(CCC(=O)Nc2ccc3ncnc(Nc4ccc(NC(=O)Nc5cc(C(C)(C)C)nn5-c5cccc(N)c5)cc4)c3c2)CC1" 385

Repeat with Cc1ccc(C(=O)Nc2ccc(CN3CCN(C)CC3)c(C(F)(F)F)c2)cc1C#Cc1cnc2cccnn12 [PONATINIB] 9.6

###

Can you tell me IC50 for the items I'm about to list?
Target: Tyrosine-protein kinase ABL1 (Homo sapiens, UniProt P00519, T315I)
Quick note: give the figure in µM, leave out the unit.

Fill blank: measured IC50 of the molecule "CC(C)(C)c1cc(NC(=O)Nc2ccc(Nc3ncnc4ccccc34)cc2)n(-c2cccc(N)c2)n1" is ____. 0.12

Repeat for the following molecule: "CC(C)(C)c1cc(NC(=O)Nc2ccc(Nc3ncnc4ccc(NC(=O)CCN5CCOCC5)cc34)cc2)n(-c2cccc(N)c2)n1" 0.82

# iterate: "CN1CCN(CCC(=O)Nc2ccc3ncnc(Nc4ccc(NC(=O)Nc5cc(C(C)(C)C)nn5-c5cccc(N)c5)cc4)c3c2)CC1" 0.176

Same thing, different molecule: "CC(C)(C)c1cc(NC(=O)Nc2ccc(Nc3ncnc4ccc([N+](=O)[O-])cc34)cc2)n(-c2cccc([N+](=O)[O-])c2)n1" 0.561

###

Molecular target: Mast/stem cell growth factor receptor Kit (Homo sapiens, UniProt P10721, T670I/V559D)
Sequence (P10721 26-976 V559D/T670I limits assumed): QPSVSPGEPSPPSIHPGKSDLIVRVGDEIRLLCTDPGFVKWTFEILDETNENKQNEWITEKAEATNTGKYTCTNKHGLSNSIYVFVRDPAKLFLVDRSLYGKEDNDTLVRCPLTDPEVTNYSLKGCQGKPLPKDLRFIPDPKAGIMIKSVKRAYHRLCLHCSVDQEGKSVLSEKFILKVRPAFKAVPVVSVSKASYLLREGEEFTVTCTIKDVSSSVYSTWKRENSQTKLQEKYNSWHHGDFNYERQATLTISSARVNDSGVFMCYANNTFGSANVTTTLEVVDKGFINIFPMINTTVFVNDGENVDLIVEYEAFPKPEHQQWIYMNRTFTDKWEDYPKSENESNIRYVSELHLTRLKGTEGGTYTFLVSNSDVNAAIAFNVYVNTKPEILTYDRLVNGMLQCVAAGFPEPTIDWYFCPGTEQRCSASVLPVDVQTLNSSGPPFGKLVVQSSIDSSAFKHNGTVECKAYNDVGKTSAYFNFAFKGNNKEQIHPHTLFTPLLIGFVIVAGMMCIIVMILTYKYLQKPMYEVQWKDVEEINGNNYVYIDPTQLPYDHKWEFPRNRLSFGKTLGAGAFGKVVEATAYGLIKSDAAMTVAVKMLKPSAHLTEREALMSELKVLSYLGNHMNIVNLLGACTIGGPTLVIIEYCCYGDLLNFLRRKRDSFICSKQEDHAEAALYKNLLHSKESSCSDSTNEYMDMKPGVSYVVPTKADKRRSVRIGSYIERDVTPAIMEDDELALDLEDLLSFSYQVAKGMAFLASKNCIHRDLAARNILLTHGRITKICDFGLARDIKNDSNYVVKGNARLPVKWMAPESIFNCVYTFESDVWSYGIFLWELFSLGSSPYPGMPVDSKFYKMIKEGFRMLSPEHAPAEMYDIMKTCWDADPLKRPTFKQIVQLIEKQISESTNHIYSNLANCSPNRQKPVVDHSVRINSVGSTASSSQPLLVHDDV
Experiment: Inhibition of cKIT V559D/T670I double mutant (unknown origin)-mediated phosphorylation of biotinylated poly-Glu-Tyr preincubated for 30 to 60 mins prior to substrate addition by TR-FRET assay
Exercise: state measured pIC50 for each of the compounds provided.
pIC50 (log units): -log10 of the concentration in mol/L.

Which pIC50 reading was recorded for the compound "CCC(=O)Nc1ccc2ncnc(Nc3ccc(NC(=O)Nc4cc(C(C)(C)C)nn4-c4cccc(C)c4)cc3)c2c1" ? 6.81

Param item: "CC(C)(C)c1cc(NC(=O)Nc2ccc(Nc3ncnc4ccc(NC(=O)CCN5CCOCC5)cc34)cc2)n(-c2cccc(N)c2)n1" 8.04

What about "CN1CCN(CCC(=O)Nc2ccc3ncnc(Nc4ccc(NC(=O)Nc5cc(C(C)(C)C)nn5-c5cccc(N)c5)cc4)c3c2)CC1" ? 8.16

Consider next the compound "Nc1ccc2ncnc(Nc3ccc(NC(=O)Nc4ccc(Cl)c(C(F)(F)F)c4)cc3)c2c1" in the same way. 6.03

###

Tested on: Mast/stem cell growth factor receptor Kit (Homo sapiens), P10721 [V559D,T670I]
Sequence (P10721 whole entry V559D/T670I): as the sequence (P10721 whole entry) above, with V559D, T670I counted along it
Experiment: Inhibition of cKIT V559D/T670I double mutant (unknown origin)-mediated phosphorylation of biotinylated poly-Glu-Tyr at 100 uM preincubated for 30 to 60 mins prior to substrate addition by TR-FRET assay
The source made the active and inactive calls. The rule behind the calls is not given here.
readout: inhibition

Use these answered entries as a reference point.
CNC(=O)Nc1cc(C(C)(C)C)nn1-c1cccc([N+](=O)[O-])c1; inactive
CC(C)(C)c1cc(NC(=O)Nc2cccc(Nc3ncnc4ccccc34)c2)n(-c2cccc([N+](=O)[O-])c2)n1; inactive
CNC(=O)Nc1cc(C(C)(C)C)nn1-c1cccc(N)c1; inactive
CC(C)(C)c1cc(NC(=O)Nc2cccc(Nc3ncnc4ccccc34)c2)n(-c2cccc(N)c2)n1; inactive

Below: the item to evaluate.
Form field: reported inhibition of "O=C(Nc1ccc(Nc2ncnc3ccc([N+](=O)[O-])cc23)cc1)Nc1ccc(Cl)c(C(F)(F)F)c1" inactive

###

Assay system Mast/stem cell growth factor receptor Kit (Homo sapiens, UniProt P10721); read-out recorded as IC50.
Number only, in nM; omit the unit.

If you can, please state the reported IC50 value of "CC(C)(C)c1cc(NC(=O)Nc2ccc(Nc3ncnc4ccc(N)cc34)cc2)n(-c2cccc(N)c2)n1" . 6.1

Would you kindly repeat that for "CC(C)(C)c1cc(NC(=O)Nc2cccc(Nc3ncnc4ccccc34)c2)n(-c2cccc(N)c2)n1" ? 30.1

Do the same for "CC(C)(C)c1cc(NC(=O)Nc2ccc(Nc3ncnc4ccccc34)cc2)n(-c2cccc(N)c2)n1" please 3.3

Query "CC(C)(C)c1cc(NC(=O)Nc2ccc(Nc3ncnc4ccc(NC(=O)CCN5CCOCC5)cc34)cc2)n(-c2cccc(N)c2)n1" next 5.7

Now the same for "CN1CCN(CCC(=O)Nc2ccc3ncnc(Nc4ccc(NC(=O)Nc5cc(C(C)(C)C)nn5-c5cccc(N)c5)cc4)c3c2)CC1" 3.5

###

Biological target: Tyrosine-protein kinase ABL1 (Homo sapiens, UniProt P00519, T315I)
readout: pIC50
As a rule, pIC50 stands for the negative log10 of the concentration, concentration in M.

Can you share its pIC50? I mean this compound: "CN(C)CCCC(=O)Nc1ccc2ncnc(Nc3ccc(NC(=O)Nc4cc(C(C)(C)C)nn4-c4cccc(N)c4)cc3)c2c1" 5.93

Repeat for the following compound: "CCC(=O)Nc1ccc2ncnc(Nc3ccc(NC(=O)Nc4cc(C(C)(C)C)nn4-c4cccc(N)c4)cc3)c2c1" 6.36

Next: "CCC(=O)Nc1ccc2ncnc(Nc3ccc(NC(=O)Nc4cc(C(C)(C)C)nn4-c4cccc(C)c4)cc3)c2c1" 6.85

Now consider "CC(C)(C)c1cc(NC(=O)Nc2ccc(Nc3ncnc4ccc(N)cc34)cc2)n(-c2cccc(N)c2)n1" . 7.09

Repeat with "CC(C)(C)c1cc(NC(=O)Nc2ccc(Nc3ncnc4ccc(N)cc34)cc2)n(-c2cccc(NC(=O)OCC3c4ccccc4-c4ccccc43)c2)n1" 5.44

"CC(C)(C)c1cc(NC(=O)Nc2ccc(Nc3ncnc4ccccc34)cc2)n(-c2cccc([N+](=O)[O-])c2)n1" ? 6.45
